- protocol_notes: Inhibition of Sonic-induced hedgehog signalling in mouse NIH3T3 cells after 48 hrs by Gli-luciferase reporter assay
- Format: cell-based
- assay_context: NIH3T3, 48 h
Label Fulfilled when IC50 < 3 nM; otherwise Not fulfilled.

Solved cases below.
Cc1c(C(=O)Nc2ccc(N3C[C@@H](C)O[C@@H](C)C3)nc2)cccc1-c1ccc(OC(F)(F)F)cc1 :: Not fulfilled
CCN(CC)Cc1ccc(C)c(NC(=O)c2ccc(Nc3ncc(F)c(-c4ccc(OC(F)(F)F)cc4)n3)cc2)c1 :: Fulfilled
Cc1ccc(CN2CCN(C)CC2)cc1NC(=O)c1ccc(Nc2ncc(F)c(-c3ccc(OC(F)(F)F)cc3)n2)cc1 :: Fulfilled

Strictly below 3 nM: is that where IC50 of `O=C(Nc1cccc(CN2CCOCC2)c1)c1ccc(Nc2nccc(-c3ccc(OC(F)(F)F)cc3)n2)cc1` sits?
Fulfilled

Strictly below 3 nM: is that where IC50 of `CS(=O)(=O)c1ccc(C(=O)Nc2ccc(Cl)c(-c3ccccn3)c2)c(Cl)c1` sits?
Not fulfilled

Strictly below 3 nM: is that where IC50 of `Cc1ccc(CN2CCN(C)CC2)cc1NC(=O)c1ccc(Nc2nccc(-c3ccc(OC(F)(F)F)cc3)n2)cc1` sits?
Fulfilled

Strictly below 3 nM: is that where IC50 of `CCN(CC)Cc1ccc(C)c(NC(=O)c2ccc(Nc3nccc(-c4ccc(OC(F)(F)F)cc4)n3)cc2)c1` sits?
Fulfilled

Strictly below 3 nM: is that where IC50 of `Cc1ccc(CN2CCCCC2)cc1NC(=O)c1ccc(Nc2ncc(F)c(-c3ccc(OC(F)(F)F)cc3)n2)cc1` sits?
Not fulfilled

Strictly below 3 nM: is that where IC50 of `Cc1ccc(CN2CCCC2)cc1NC(=O)c1ccc(Nc2ncc(F)c(-c3ccc(OC(F)(F)F)cc3)n2)cc1` sits?
Not fulfilled

Strictly below 3 nM: is that where IC50 of `Cc1ccc(CN2CCOCC2)cc1NC(=O)c1ccc(Nc2ncc(C3CC3)c(-c3ccc(OC(F)(F)F)cc3)n2)cc1` sits?
Not fulfilled

Strictly below 3 nM: is that where IC50 of `Cc1ccc(CN2CCOCC2)cc1NC(=O)c1ccc(Nc2ncc(F)c(-c3ccc(OC(F)(F)F)cc3)n2)cn1` sits?
Fulfilled

Strictly below 3 nM: is that where IC50 of `Cc1ccc(CN2CCCCC2)cc1NC(=O)c1ccc(Nc2nccc(-c3ccc(OC(F)(F)F)cc3)n2)cc1` sits?
Fulfilled

Strictly below 3 nM: is that where IC50 of `Cc1ccc(CN2CCOCC2)cc1NC(=O)c1ccc(Nc2ncc(F)c(-c3ccc(OC(F)(F)F)cc3)n2)cc1` sits?
Fulfilled

Strictly below 3 nM: is that where IC50 of `Cc1ccc(CN2CCOCC2)cc1NC(=O)c1ccc(Nc2nccc(-c3ccc(OC(F)(F)F)cc3)n2)cn1` sits?
Fulfilled

Strictly below 3 nM: is that where IC50 of `Cc1ccc(CN(C)C)cc1NC(=O)c1ccc(Nc2ncc(F)c(-c3ccc(OC(F)(F)F)cc3)n2)cc1` sits?
Not fulfilled

Strictly below 3 nM: is that where IC50 of `Cc1ccc(CN2CCOCC2)cc1NC(=O)c1ccc(Nc2ncc(F)c(-c3ccc(OC(F)(F)F)cc3)n2)nc1` sits?
Fulfilled

Strictly below 3 nM: is that where IC50 of `Cc1ccc(CN2CCCC2)cc1NC(=O)c1ccc(Nc2nccc(-c3ccc(OC(F)(F)F)cc3)n2)cc1` sits?
Fulfilled

Strictly below 3 nM: is that where IC50 of `Cc1ccc(CN2CCOCC2)cc1NC(=O)c1ccc(Nc2nccc(-c3ccc(OC(F)(F)F)cc3)n2)cc1` sits?
Fulfilled
